Test system: OVCAR-4 ovarian
Assay: NCI tumour cell line growth inhibition, 48 h
Readout: TGI

# input Fill blank: measured TGI of the compound CCO/C=C1\N=C(C(Cl)c2ccccc2)OC1=O (stereo not drawn) is ____.
# output > 100 µM

# input Next entry: O=C(Nc1ccc2[nH]c(C(=O)N3CC(CCl)c4c3cc([N+](=O)[O-])c3ccccc43)cc2c1)c1cc2ccccc2o1 (stereo not drawn)
# output > 1100 µM

# input Next entry: COc1cc(C2c3cc4c(cc3OC3(OC)COC(=O)C23)OCO4)cc(OC)c1OC (stereo not drawn)
# output > 100 µM

====

System: HOP-62 NSCLC
Experiment: NCI tumour cell line growth inhibition, 48 h
Where a SMILES comes first, the peptide text is derived from it. [ ]: non-standard residue; d: D form. pGlu = O=C1CC[CH](C(=O)O)N1
# TGI listing for each entry below

Completed entries (count: 2):
Compound: CC(NC(=O)C(Cc1cnc[nH]1)NC(=O)C1CCC(=O)N1)C(N)=O (stereo not drawn) ([pGlu]-His-Ala-NH2; configuration not given here)
TGI: > 100 µM
//
Compound: NC(=O)CCC(NC(=O)c1cccc2c(=O)c3ccccc3[nH]c12)C(=O)O (stereo not drawn)
TGI: > 100 µM

Let us examine a further case.
# input Fill blank: measured TGI of the compound CCCOC(=O)N[C@H]1CCc2cc(OC)c(OC)c(OC)c2-c2ccc(SC)c(=O)cc21 is ____.
# output > 100 µM

====

System: KM12 colon
Experiment: NCI tumour cell line growth inhibition, 48 h
Readout: TGI

Completed entries (count: 5):
Molecule: COC1=C2C[C@H](O)C(C)C[C@@]2(OC)OC1=O (stereo partly specified)
TGI: > 100 µM

Molecule: COc1cccc2c1-c1c(OC)cccc1SS2
TGI: > 100 µM

Molecule: C[C@H](CN1CC(=O)NC(=O)C1)N1CC(=O)NC(=O)C1
TGI: > 100 µM

Molecule: Clc1ccc(/C=N/Nc2nnc3c4ccccc4c4ncccc4c3n2)cc1
TGI: > 10 µM

Molecule: O=C1OC(c2ccc(Cl)cc2)(c2ccc(Cl)cc2)c2c1ccc1ccccc21
TGI: > 100 µM

Let us examine a further case.
# input Fill blank: measured TGI of the molecule CCOC(=O)C1=NN(c2ccc(Cl)cc2)C2=CC(C)=NN(C)C(=S)N21 is ____.
# output > 100 µM

====

# TGI listing for each entry below
Tested on: NCI/ADR-RES ovarian
Assay: NCI tumour cell line growth inhibition, 48 h

Compound: C=CC[C@@H]1C=C[C@@H](C(=O)OC)n2c(=O)n(-c3ccccc3)c(=O)n21
Observed Result: > 100 µM

# input Fill blank: measured TGI of the compound S=c1nc2sc3c(c2c(Nc2ccc(Br)cc2)[nH]1)CCN(N1CCc2c(sc4nc(=S)[nH]c(Nc5ccc(Br)cc5)c24)C1)C3 is ____.
# output > 50 µM

# input Next entry: CC(C)(C)c1cc(/C=C/C(=O)CC(=O)/C=C/c2cc(C(C)(C)C)c(O)c(C(C)(C)C)c2)cc(C(C)(C)C)c1O
# output > 50 µM

# input Next entry: CC(=O)NC(C)c1ccc(N=NN2CCCC2)cc1 (stereo unspecified)
# output > 100 µM

# input Next entry: CC1(C)O[C@H]2OC(CO)C(OS(C)(=O)=O)[C@H]2O1 (stereo partly specified)
# output > 100 µM

# input Next entry: COc1ccc2c(c1)CC1(O)COc3cc(OC)ccc3C1O2 (stereo unspecified)
# output > 100 µM

Origin of the recorded values: PubChem BioAssay (NCI)
